- System: Inhibin beta A chain (activin A)
- Measurement notes: INHBA (activin A) binders on microarrays, primary screen, biochemical, small-molecule microarray, 635 nm fluorescence scan (AID 1107);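 also: mouse activin A protein probed at 4.33 µg/mL on printed slides; score merges bound-protein fluorescence near 667 nm with spot signal-to-noise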
- Assay setup: small-molecule microarray binding, higher = more signal
Label criterion not met if composite z-score falls below 0.4; label criterion met in every other case.

Cc1ccc(S[C@]2(C(=O)NCCCN(C)C)CC(=O)N(Cc3cc(C(F)(F)F)cc(C(F)(F)F)c3)[C@@H]2c2ccc(CO)cc2)cc1; criterion met
C=C[C@H](OC)[C@@H](OC(=O)Nc1ccc(OC)cc1)c1ccc(O)c(F)c1; criterion not met
COCCOC(=O)N1C(=O)[C@@]2(c3cc(C#CCNC(N)=O)ccc31)[C@H](C(=O)Nc1nc3ccccc3s1)[C@H]1C(=O)O[C@H](c3ccccc3)[C@H](c3ccccc3)N1[C@@H]2c1ccc(OCCO)cc1; criterion met
CCCC[C@@H]1C[C@H]1[C@@H](NC(=O)C(C)(C)C)c1ccc(C(F)(F)F)cc1; criterion not met
COC(=O)c1c(CC[C@@H](CO)NC(=O)NCCn2cc(C3(O)CCCC3)nn2)oc(C(C)=O)c1C(=O)OC; criterion not met

Identify whether the reported composite z-score of the following molecule is 0.4 or greater: "COC(=O)[C@@]1(Cc2ccccc2)N=C(c2ccc(OCCCO)cc2)O[C@H]1c1ccccc1" criterion met

Next entry: "CC(=O)NCCCC[C@@H]1NC(=O)[C@@H]2C[C@H](C(=O)NCCCCCNC(=O)CS)[C@H](c3cccc(OCCO)c3)N2C1=O" criterion not met

Please do the same for O[C@@H](Cc1ccccc1)[C@H]1C2C=CCCC=C2CN1Cc1cccc(Cl)c1 (some centres not stated) as well. criterion not met

Queued: CN1C(=O)C2C=CC(C(O)C#Cc3ccccc3)N(N3CCCCC3)C2C1=O (configuration not stated) criterion met
